- target.system: dextromethorphan metabolism (demethylation; CYP2D6) in human liver microsomes (Homo sapiens)
- Construct: in the presence of dextromethorphan (2.5 μM) and human liver microsomes (0.5 mg/mL) at 37° C; from tissue; host or cells: human liver microsomes
- Sequence (P10635 whole entry): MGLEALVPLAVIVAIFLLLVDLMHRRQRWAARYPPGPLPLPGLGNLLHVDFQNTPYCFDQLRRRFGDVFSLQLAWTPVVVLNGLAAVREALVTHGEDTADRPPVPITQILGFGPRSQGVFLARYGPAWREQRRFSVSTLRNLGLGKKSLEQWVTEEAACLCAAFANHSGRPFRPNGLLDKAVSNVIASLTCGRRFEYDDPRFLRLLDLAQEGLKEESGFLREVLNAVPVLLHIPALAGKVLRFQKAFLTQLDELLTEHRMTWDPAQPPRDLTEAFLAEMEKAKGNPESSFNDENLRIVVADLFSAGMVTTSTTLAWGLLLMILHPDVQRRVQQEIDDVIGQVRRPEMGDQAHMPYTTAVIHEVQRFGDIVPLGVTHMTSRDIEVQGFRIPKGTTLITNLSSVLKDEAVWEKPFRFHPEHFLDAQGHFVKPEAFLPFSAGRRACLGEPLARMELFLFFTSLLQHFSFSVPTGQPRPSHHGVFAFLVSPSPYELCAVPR
- measurement.protocol: Inhibition of dextromethorphan metabolism in human liver microsomes
- Assay type: in vitro ADME
readout.type: IC50 (µM)

a = CS(=O)(=O)c1ccc(C2=C(c3ccccc3)C(=O)OC2)cc1
b = Cc1onc(-c2ccccc2)c1-c1ccc(S(N)(=O)=O)cc1
Task: Could you tell me which of these two has the smaller IC50 figure? First: a Second: b Returns: label corresponding to the selected item.
Output: b

###

Listing: pIC50 of selected compounds
- target.system: dextromethorphan metabolism (demethylation; CYP2D6) in human liver microsomes (Homo sapiens)
- Construct: in the presence of dextromethorphan (2.5 μM) and human liver microsomes (0.5 mg/mL) at 37° C; from tissue; host or cells: human liver microsomes
- measurement.protocol: Inhibition of dextromethorphan metabolism in human liver microsomes
- Format: in vitro ADME
pIC50: −log10 of the molar value.

Examples with their reported pIC50 follow.
compound=Cc1ccc(-c2cc(C(F)(F)F)nn2-c2ccc(S(N)(=O)=O)cc2)cc1 readout_type=pIC50 observed="5.54 to 5.59"
compound="CC(C(=O)O)c1ccc(-c2ccccc2)c(F)c1 (stereo not drawn)" readout_type=pIC50 observed="< 3.49"

Task: # input compound: CC1=C(CC(=O)O)c2cc(F)ccc2/C1=C\c1ccc([S+](C)[O-])cc1 (stereo not drawn) ; wanted: its pIC50
Output: < 4.44

Cited source for all entries: patent US20230277504A1
